Ref: paper PMC10397247

Target: T1, O5-bP
T1 chain: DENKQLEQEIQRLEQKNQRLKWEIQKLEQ
Assay: two-hybrid library CCNG1;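 note: natural log of median RNA to DNA barcode read ratio; higher means stronger binding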
metric: interaction score

# annotated cases, reported interaction score shown
1. DKNKQLKQKIQRLKQKNQRLKWEIQKLEQ [O13-bP] = -0.814
2. DKIKQLKQEIQRLEQKNQRLKWKNQKLKQ [O4-bP] = -0.998
3. DKNKQLKQENQRLEQKIQRLKWKIQKLKQ [O10-bP] = -0.843

I: DEIKQLEQENQRLEQKIQRLKWENQKLEQ [O15-bP]
II: DKNKQLKQENQRLEQEIQRLEWEIQKLEQ [O1-bP]
III: DKIKQLKQEIQRLEQENQRLEWENQKLEQ [O11-bP]
IV: DENKQLEQKNQRLKQKIQRLKWKIQKLKQ [O2-bP]
Ascending sort, interaction score. List the labels, following the order given in the request.
II, IV, III, I
